# assay-explanation: NCI Yeast Anticancer Drug Screen. Data for the rad52 strain (AID 147);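 further: 0% = growth of vehicle-treated control cultures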
# details: S. cerevisiae rad52 mutant growth inhibition; at 33.0 µM; active compounds read high
About 79,000 compounds went through this panel and 15% of them were active in at least one assay; those are over-represented in the sample as a whole.
# maps each entry to its growth inhibition
Answer in %, number only, no unit symbol.

Please review the following examples before continuing.
| compound | growth inhibition (%) |
| --- | --- |
| OCCNCCOc1ccc(/C(=C(/Cl)c2ccccc2)c2ccccc2)cc1 | 98 |
| Cc1c2cc[n+](CCN3CCCCC3)cc2c(C)c2c1[nH]c1ccc(O)cc12 | 93 |

Request: Read off the recorded growth inhibition for Oc1ccccc1N=Cc1ccc(Cl)cc1
Response: 29

Request: Read off the recorded growth inhibition for COc1cc2c(cc1C[N+](C)(C)CSc1ccccc1)-c1ccccc1CC2
Response: 99

Request: Read off the recorded growth inhibition for O=C(CNS(=O)(=O)Cc1ccccc1)NNc1ccccc1
Response: 35

Request: Read off the recorded growth inhibition for C/C(=N\NC(=S)NNC(=S)N(C)c1ccccc1)c1ccccn1
Response: 98

Request: Read off the recorded growth inhibition for COc1ccc2oc(-c3ccc(Cl)cc3)c(N3CCN(C)CC3)c2c1
Response: 98

====

# assay-explanation: NCI Yeast Anticancer Drug Screen. Data for the mec2-1 strain (AID 157)
# details: S. cerevisiae mec2-1 strain, at 11.0 µM, active compounds read high
# Procedure: Growth inhibition of yeast strains with defined genetic alterations is measured as a screen for potential anti-cancer activity. Selected strains with alterations in DNA damage repair or cell cycle control were exposed to compounds and growth inhibition was measured relative to vehicle treated controls. The strain used in this assay is mec2-1
About 79,000 compounds went through this panel and 15% of them were active in at least one assay; those are over-represented in the sample as a whole. The source made the active and inactive calls. Rule as the data show it: active = growth inhibition above about 70%; inactive = the rest.
recorded-endpoint: growth inhibition

Request: Read off the recorded growth inhibition for Cn1ncc2cc3c(Nc4ccc(Cl)cc4)cccc3nc21
Response: -3% (inactive)

Request: Read off the recorded growth inhibition for Oc1ccccc1N=Cc1ccc(Cl)cc1
Response: 18% (inactive)

Request: Read off the recorded growth inhibition for COc1cc([C@@H]2c3cc4c(cc3[C@@H](OC3OC5COC(C)OC5C(O)C3O)[C@H]3COC(=O)[C@H]23)OCO4)cc(OC)c1O (some centres undefined)
Response: 4% (inactive)

Request: Read off the recorded growth inhibition for [N-]=[N+]=NC(c1ccccc1)(c1ccccc1)c1ccccc1
Response: 13% (inactive)

====

# maps each entry to its growth inhibition
# assay-explanation: NCI Yeast Anticancer Drug Screen. Data for the rad18 strain (AID 177)
# details: S. cerevisiae rad18 mutant growth inhibition; at 33.0 µM; active compounds read high
Compounds without any hit were thinned out: in the full panel of roughly 79,000, 15% have a hit. The source made the active and inactive calls. Cut-off read from the data, not from the text of the source: active = growth inhibition above about 70%; inactive = the rest.

Please review the following examples before continuing.
| compound | result |
| --- | --- |
| N#C/C(=C/N1C(=O)/C(=C/c2ccc([N+](=O)[O-])cc2)SC1=S)c1nc2ccccc2s1 | 69% (inactive) |
| O=c1[nH]cc(/C=N\Nc2ccccc2)c(=O)[nH]1 | 88% (active) |
| COc1cc(/C=C/c2sc3ccccc3[n+]2C)ccc1N(C)C | 73% (active) |
| [Pt].c1ccc(P(CCP(c2ccccc2)c2ccccc2)CCP(c2ccccc2)c2ccccc2)cc1 | 94% (active) |
| CC(=O)C1=C(O)C2(C)c3c(O)c(C)c(O)c(C(C)=O)c3OC2(Sc2ccccc2)CC1=O (stereo not given) | 47% (inactive) |
| S=c1nc(Cl)cc2[nH]c(Cl)cn12 | 44% (inactive) |

Request: Read off the recorded growth inhibition for CC(C)(O)c1ccccc1C(c1ccccc1)c1ccccc1
Response: 3% (inactive)

Request: Read off the recorded growth inhibition for Cn1ncc2cc3c(Nc4ccc(Cl)cc4)cccc3nc21
Response: -2% (inactive)

Request: Read off the recorded growth inhibition for O=C(Nc1ccc2c(c1)Cc1c-2ccc([N+](=O)[O-])c1F)C(F)(F)F
Response: 5% (inactive)

Request: Read off the recorded growth inhibition for C=Cc1cnc([N+](=O)[O-])n1C
Response: 94% (active)

Request: Read off the recorded growth inhibition for CC(=O)CC(=O)/C=C/c1cccs1
Response: 20% (inactive)

Request: Read off the recorded growth inhibition for CC(=O)N1C(=O)/C(=C\C(=O)c2ccc([N+](=O)[O-])cc2)c2ccccc21
Response: 90% (active)

Request: Read off the recorded growth inhibition for O=C(/C=C/c1cccc2ccccc12)c1ccc(Cl)cc1
Response: 13% (inactive)

Request: Read off the recorded growth inhibition for N#C/C(=C/c1c(Cl)cccc1Cl)C(N)=O
Response: 81% (active)

Request: Read off the recorded growth inhibition for Cc1ccc(N=Nc2ccc(O)c(C)c2)cc1
Response: 98% (active)

Request: Read off the recorded growth inhibition for c1ccc2c(c1)ccc1c3ccncc3ccc21
Response: 99% (active)

Request: Read off the recorded growth inhibition for O=S(=O)(c1cc(Cl)ccc1O)c1cc(Cl)ccc1O
Response: 99% (active)

Request: Read off the recorded growth inhibition for Cc1cc(C(C)(C)CC(C)(C)C)cc(O)c1O
Response: 96% (active)

Request: Read off the recorded growth inhibition for CCc1nc(N)nc(N)c1-c1ccc(NCCCCCCN)c([N+](=O)[O-])c1
Response: -17% (inactive)

Request: Read off the recorded growth inhibition for COc1ccc(/C=C(\NC(=O)c2ccccc2)C(=O)NN(C)c2ccnc3cc(Cl)ccc23)cc1OC
Response: 41% (inactive)

Request: Read off the recorded growth inhibition for CC[C@@]1(OC(=O)CN(C)C)C(=O)OCc2c1cc1n(c2=O)Cc2cc3c(N)cccc3nc2-1
Response: 19% (inactive)

Request: Read off the recorded growth inhibition for COCCCN(Cc1cc(OC)c(OC)c(OC)c1)C(=S)Nc1cccc(Cl)c1
Response: -15% (inactive)

Taken from PubChem BioAssay (NCI).
